# procedureDetails: soluble on expression in E. coli; label from the status in PepcDB or PDB records
experimentalReadout: soluble on expression in E. coli

[[record]]
sequencestring = "MTTQIELGDITVDVVLKDIKNIHLSVYPPNGRVKISAPLRMDIDTIRVFAISRLGWIKQQRKKFQEQERETPREYLDLESHYVWGKRYLLKVIEVNEAPSVELKHSKMILRVRPGTDDKKRQSIIDAWYREQLKKAIPPLIARWEPLLGVKVERFFVQRMRTKWGSCNHKARNIRLNTELAKKPEECLEYTIVHEMAHILEPTHNSHFITLMDQFMPKWQFCRDRLNQLPVRHEDWIYLEHHHHHH"
endpointvalue = "soluble"

[[record]]
sequencestring = "MRVSKSKKPTEICPIVSAIAIIGSEPKLLTIRYLLDGPKRFNELQRLTSLSSKTLSKTLKELENHGIVERKIINSHPIVAVYELTDKGKDLKRVFDELRRWGEKFALTKIAVMNSIRVNQEF"
endpointvalue = "soluble"

[[record]]
sequencestring = "MGSSHHHHHHGGTGENLYFQGGSGAFRGSSARLAATPGVGIAPETTPVKYVPEMLNIQNAKWWNGRGKPVYRSTYNEKSWLEKARWGAFTKGSRPVMRQRYSAAALKEALEMVPEGFETCDVPRPPQRIRAQSEGVVGRWYTNYWTLHSVRYQCQLAGVEWQFGERQRPRTNYDEPHMYTDFEETKAIRDYRSRWINVNRSLVGMSRRMKESEEEARYLHFKKVQDTFWSNRKVLVNRIKSMHNQGTLQSAKDLPIKTINIKAFLAE"
endpointvalue = "not soluble"

[[record]]
sequencestring = "MGSDKIHHHHHHMNDDIYDEMVRERGREYFLKNMVKYCVKRGNTLHGTVYGSDKYITKVDLKTKTGICTCPYQYNCKHAYALLESYKSGKYVDGDELFLNFSKLDKLEILKIFESIIEKHNLWDEFITEDKTLLDTAKNMLELTKIEKKNVFTFTSFLRNQFLKNAGNEELLLIIPDVIKYIQERKKLEEILFLIVDELFERGKTDKDTLKKLIELSRKYRELWMVKDNILDYEYFELLEY"
endpointvalue = "not soluble"

[[record]]
sequencestring = "MSLVEDGKATLGLRNFYINRNFTNPSNPQSKAEEWTQSFILDARSGFTEGPIGFGVDVLGLWSVKLDGGGGTYGTALLPRHDDGRPADDYGRLAVAGKARISKTELKIGEWMPVLPILRSDDGRSLPQTFRGGQVTSNEIAGLTLYGGQFRGNSPRNDASMEDMSYGGGVSDRFNFVGGEYKFNQDRTQVGLWNAVLKDVYQQQYLQLSHSQPVGDWTLGANLGYFHGDEDGSERAGQLDNKTYSGMFSAKYGGSTFWVGLQKVDGDTWMRVNGTSGGTLANDSYNSSFDNANERSWQVRHDFNFVTVGVPGLTLMNRYISGRDVHSGGVTDGKEWVRETELAYVIQSGAFKDLSVKWRNSSIRRDYSNNEFDENRLIFNYPLSLLEGHHHHHH"
endpointvalue = "soluble"

[[record]]
sequencestring = "MSLKRFIDDHRDVHGVEPICKVLPIAPSTYYAHAARRSDPELRSARAKTDEALMPEIRRVWDENFQVYGVRQLWRQMRREQFAVARCTVQRLMKRQGLRGVIRGKAVRTTVSDAKAPCPLDHVNRQFTSDRPNALWVSDFTDVSTWQGWICVAFVIDVFARRIVGWKASPSMRTELVLDALEQALHARKPVGSERMIHHSDRGVQYVSIRYTERLAEAGLEPSVGSVSDSYDNALAETINGLCKAEVIHRKSSWRTREEVEWATLTWVDWFNNRRVLEPIGNIPPAEAEANYYLISPDLQLQHLRAYREGHHHHHH"
endpointvalue = "soluble"


====

# procedureDetails: soluble on expression in E. coli; label from the status in PepcDB or PDB records
experimentalReadout: soluble on expression in E. coli

[[record]]
sequencestring = "MEGIMNPYTALPTPQQLLAIEQSVYSSDPFRQGLTPPQMPGDHMHPYGAEPLFHDLDSDDTSLSNLGDCFLATSEAGPLQSRVGNPIDHLYSMQNSYFTS"
experimentalreadout = "soluble on expression in E. coli"
endpointvalue = "soluble"

[[record]]
sequencestring = "AEIVEGRDYTVLSAPQPTEGDSEHIEVIEFFWYGCPHCSDLHPHLSRWLENKPADVAFRFVPAILRNNWVPGAKTFYAMESLGLTQTLHDKVYHAIHREKTDLSKEATLFDWIGKQGVDRDKFIGAYNSFTVQNQANRSAQMIRQYKLTGVPALVVDGRYLTSGKAGGTPQDTISVLNQLIEK"
experimentalreadout = "soluble on expression in E. coli"
endpointvalue = "not soluble"

[[record]]
sequencestring = "MSLAITTSPPTVSDTKRIFYANYKKLLLPLYNTPIQNMLVKQHIHRYNKNYTYSDVSALGIVTTLDSVLNTFPDDEKTSIKNAFIISLNEDPEMYYSNIESLKPYAKSSHLGPNKHGNTLQKSLYDIAINDKYVYSSFAAVGIFKLLQMNGNYTGNSVKHLSESIGFKGELVHKDIATFFSLLKYIESSQKLADDIREESLKREGHHHHHH"
experimentalreadout = "soluble on expression in E. coli"
endpointvalue = "soluble"

[[record]]
sequencestring = "GSPEFRWTKEEEETRQMYDMVVKIIDVLRSHNEACQENKDLQPYMPIPHVRDSLIQPHDRKKMKKVWDRAVDFLAANESRVRTETRRIGGADFLVWRWIQPSASCDKILVIPSKVWQGQAFHLDRRLERPHRD"
experimentalreadout = "soluble on expression in E. coli"
endpointvalue = "soluble"

[[record]]
sequencestring = "MRSTKVIHIVGCHAEGEVGDVIVGGVAPPPGETVWEQSRFIANDETLRNFVLNKPRGGVFRHVNLLVPPKDPRAQMGFIIMEPADTPPMSGSNSICVSTVLLDSGIIAMQEPVTHMVLEAPGGIIEVEAECRNGKAERISVRNVPSFADRLDAPLDVTGLGTIMVDTAYGGDSFVIVDAAQIGMKIEPGQARELAEIGVKITKAANEQLGFRHPERDWRHISFCQITEPVTREGDVLTGVNTVAIRPAKFDRSPTGTGCSARMAVLHAKGQMKAGERFIGKSVLGTEFHCRLDKVLELGGKPAISPIISGRAWVTGTSQLMLDPSDPFPHGYRLSDTWPRDELEHHHHHH"
experimentalreadout = "soluble on expression in E. coli"
endpointvalue = "soluble"

[[record]]
sequencestring = "PSFSFGGITPVSLQRSSMELISVQAVKHPKLLLYLSERGLQPSDASPFLSEVYYKVSRKCFFALGFPNDAGGWELRNPYFKGCFAPKAITTIKGTDSHKLLLFEGFMDFLSWRKLHPEGQAESIILNSLTLLPKLMPTLHPYPMIESLLDNDEAGDRATKQLIDAGLPVKDMRACYAPYKDINEYLTLAEQRKKILTPHKRGLRR"
experimentalreadout = "soluble on expression in E. coli"
endpointvalue = "not soluble"

[[record]]
sequencestring = "SNTRNFVLRDEDGNEHGVFTGKQPRQAALKAANRGSGTKANPDIIRLRERGTKKVHVFKAWKEIVDAPKNRPAWMPEKISKPFVKKERIEKLE"
experimentalreadout = "soluble on expression in E. coli"
endpointvalue = "soluble"

[[record]]
sequencestring = "PTAQQLQLTTLDGKPFDPAGLKGKWLLGVADQAACPESCARKLFITRNSHASQGKNVDRVQRVWFITDDGEVPQKVLDAYRGTLMLRARPEQLGRYLLGQDAAAPAALLGPMWVIDPLGNLMLQFPPDVDGVKVRKDISRLLYNSR"
experimentalreadout = "soluble on expression in E. coli"
endpointvalue = "not soluble"


====

# procedureDetails: soluble on expression in E. coli; label from the status in PepcDB or PDB records
experimentalReadout: soluble on expression in E. coli

[[record]]
sequencestring = "VTRKSLLERCMEMEKEGYTGCLLSGGMDSRLKVPLDKFKDEIKAIKEKTKLKINAHVGFVDESDLEWLKYIDVVSLDFVGDNEVIKRVYKIDKKVEDYLRVLDLLTENGIRVAPHITIGLDFGKVHWEFKAIDILVNYPIDVLVLDVLIPTPGTEMANVPKVPVDEAIRVVKYAREKFSGELSIGCMRPFGEWRVKFDREAILAGVDRI"
endpointvalue = "not soluble"

[[record]]
sequencestring = "MSLSWRNRIQIFLAPDRVDLTGIARGIRPVQQFRQSGVCVQENDSRQQWKAPLRLLEQMIGQMDDRFRRGSELHITLSNHFVRYGVIAPQPSLANPDELMAYAGFQMREIYGERIDDWELSLSTWDPYGGALCAAIARDLQSELIMFARQYDTRFACIEPYLAAALDHWSKRLVEKQVWFVLVETGRFCLVVLSEGAWRCARNQRVVENLQEELLAALEQESIILSPDRSVERVYVFAPELTGQLPVHDLRWQFVRLPDEKHPAPSYFPGVTGMDDSQNH"
endpointvalue = "not soluble"

[[record]]
sequencestring = "MGSDKIHHHHHHMSDSTTPETIIVIGASSLMAQAFIAKTFTQQAYTDQTVIQQASSQQSKRHDTSPLQIITVSRQNKLILHDLTDNISHHHFSCDYQQASIEQCVTNIAAIAGKVTRIVMCNGILHSKNPQSADSILGPHSANDSTLMPEKRIEDIDALSLEQLFYANSIVPMLWLSALTSLLSLPRHKVAGEQKCVISILSARVGSISDNRLGGWYGYRASKAALNMLIKTTAVEYARRLKRVKLIAFHPGTTDTPLSKPFQANVPAGKLFTPEFVASQLYNIMADIEPNGEASYLDWQGKEISW"
endpointvalue = "not soluble"

[[record]]
sequencestring = "ELLVVTGMSGAGKSLVIQSLEDMGFFCVDNLPPVLLPKFVELMAQGNPSLQKVAIAIDLRGKELFKSLVKEIDIIKSRNDVILDVMFLEAKTEKIISRYKESRRAHPLNEQGQRSLIDAINEEREHLSEIRSIANYVIDTTKLKPKELKQRISKFYLDENFETFTINVTSFGFKHGIQMDADLVFDVRFLPNPYYVEELRPFTGLDEPVYNYVMKWKETQIFFDKLTDLLKFMIPGYKKEGKSQLVIAIGCTGGQHRSVALAKRLAEYLNEIFEYNVYVHHRDAHIE"
endpointvalue = "not soluble"

[[record]]
sequencestring = "MSLMSSDQQGKCPVDEETKKLWLREHGNEAHPGATAPGNQLECSANPQDNDKTPEYHTTVDLSQSREVSTIPRTNSDRNWIYPSEKQFYEAMMKKNWDPNSDDMKVVVPLHNSINERVWNYIKSWEDKQGGEACGGIKLTNFKGDSKKLTPRAWFRSRILHLAKPFDRHDWQIDRCGKTVDYVIDFYSTDLNDANSQQQPLIYLDVRPKLNSFEGFRLRFWKSLGFEGHHHHHH"
endpointvalue = "soluble"

[[record]]
sequencestring = "MTHSKDKKSHAFKGIGEKLNPTIYQVRFMKLDEPIRFESFPELKELGDWLSTSTHMWSCHSTMYKYNREEFEKKFLEITKLTADHVLISTGGVGFNFMSPGWRNSL"
endpointvalue = "not soluble"

[[record]]
sequencestring = "MLSYRHAFHAGNHADMLKHFTLFLVLQYFNRKDKPYWYIDTHGGAGVYNLEGSEAQKVGEYRQGIALLRQAQNLPAELSDFAAHIQKILPSPKLYCGSPWLAQSLTRVGDKLRLFELHPTDFVHLQNNMGEAGLGKRGQVLREDGYKGLISLLPPPPRRATVLIDPPYEEKQDYRRVTETLKAALKRFESGCYLIWYPCLSREESRKLPEELKKLLPDNYLHAELHVHAPKADGFGMHGSGMFVINPPYLLAEQLAANLPALTRLLAQDEGSRYLLDSKIR"
endpointvalue = "not soluble"

[[record]]
sequencestring = "MNLSNHFLVAMPDMEDAFFSQSVVYICKHDEDGALGIAINKPSPITMDMIFSATGKNIPFRMQHDSVMMGGPVQVERGYVVHTPIGNWQSSIGVSDNIALTSSRDVIENISREGAVDKILISIGYSSWGKGQLERELADNAWLTVPADEHILFDIPYEHRYAAAFAKLGIDPLALFSGAGHALEHHHHHH"
endpointvalue = "soluble"

[[record]]
sequencestring = "MKALSKLKAEEGIWMTDVPVPELGHNDLLIKIRKTAICGTDVHIYNWDEWSQKTIPVPMVVGHEYVGEVVGIGQEVKGFKIGDRVSGEGHITCGHCRNCRGGRTHLCRNTIGVGVNRPGCFAEYLVIPAFNAFKIPDNISDDLAAIFDPFGNAVHTALSFDLVGEDVLVSGAGPIGIMAAAVAKHVGARNVVITDVNEYRLELARKMGITRAVNVAKENLNDVMAELGMTEGFDVGLEMSGAPPAFRTMLDTMNHGGRIAMLGIPPSDMSIDWTKVIFKGLFIKGIYGREMFETWYKMAALIQSGLDLSPIITHRFSIDDFQKGFDAMRSGQSGKVILSWD"
endpointvalue = "soluble"

[[record]]
sequencestring = "MGSDKIHHHHHHMREDFLSREEVDALLRGVSSGSTTSEQSTANPGFRPYNLATQERIVRGRMPTLEIINERFARLLRLGLFNFMRRSANVTAGPVRVMKFSEFVRNLAAPSNLNLVHIKPLRGTSLFVFDPTLVFLVVDNLFGGDGRFLPKTEGRDFTQTEQRIIQRLLNLVFDSYGKSWHPVYPIEFEYLRAETNTQFANVATPNEVVVATTFEVNFGSVVGEMHICMPYSILEPIRDLLSSTLQGEALEVDKRWVGRLSKQVQSAEVTLLANLTHAQVRLDQILNMKVGDVIPLDIPEFVTASVDGVPVMECKYGISNGRYALRMEKMLASGNSNE"
endpointvalue = "not soluble"

[[record]]
sequencestring = "MGSDKIHHHHHHMSEKRQPWVQDLLWRLEALGFDLFIGAVRMMGVDRASDFGGWLGRTFGPMSGAHKVASRNLKLAFPDKDAAWHETILREQWDGLGRSFAEFPLMDKILPSTGRVEVVGKERLVEIAENRIPVVFVSGHLSNWEVMPAAIVDSGVICEMTYRAANNPYVDKRIKESRFRYGVRLFAPKGGDGARELLEGMKQGKSVALMNDQKFNSGVAAPFFGHLAHTAPGPTRLAIRFGTVLQPMSVQRLKGARFRAVVHDPIVPPKTGDRTADIEAGVRMINAFMEDRIRERPAEWFWVHRRWPNEVYAALAERERAAESSS"
endpointvalue = "not soluble"

